- Test system: A549
- testProtocol: Cytotoxicity against human A549 cells after 48 hrs by sulforhodamine B assay
- Type: functional
- assayContext: A549, 48 h
parameter: GI50 (µM)

[[record]]
structuresmilesstring = "COC(=O)[C@@H]1C[C@]2(CC=C(C)C)c3ccccc3N3C(=N)[C@@H](Cc4ccccc4)N1[C@@H]32"
valuecomparator = "="
obsvalue = 12

[[record]]
structuresmilesstring = "COC(=O)[C@@H]1C[C@@]2(CC=C(C)C)c3ccccc3N3C(=N)[C@H](Cc4ccccc4)N1[C@H]32"
valuecomparator = "="
obsvalue = 22.1

[[record]]
structuresmilesstring = "COC(=O)[C@@H]1C[C@@]2(CC=C(C)C)c3ccccc3N3C(=N)C(C)(C)N1[C@H]32"
valuecomparator = "="
obsvalue = 5.66

[[record]]
structuresmilesstring = "COC(=O)[C@@H]1C[C@@]2(Br)c3cc(Br)ccc3N3C(=N)[C@H](C(C)(C)C)N1[C@H]32"
valuecomparator = ">"
obsvalue = 100

